# Test system: UO-31 renal
# measurement.notes: NCI-60 one-dose screen, 48 h (100 = growth as untreated, 0 = no growth, -100 = all killed)
# condition.label: 10 µM unless noted
This is part of a sample that, as a whole, favours compounds with a hit. Of some 83,000 tested, about 20% had one in any assay.
// returns not fulfilled unless growth is strictly below 40%, in which case fulfilled

compound | classification
COc1cc(C(=O)C[n+]2ccccc2)ccc1OC(C)=O | not fulfilled
CO[C@H]1/C=C/C=C/C=C/C[C@H](OC(=O)[C@@H](C)NC(=O)C2CCCCC2)[C@H](C)[C@@H](O)/C(C)=C\CCC2=CC(=O)C=C(NC(=O)C1)C2=O | fulfilled
COc1cc(/C=C/C(=O)c2c(C)n([O-])c3cc(C)c(C)cc3[n+]2=O)cc(OC)c1OC | fulfilled
CN[C@@H](CCCNC(N)=NC/C=C(/C)CCC=C(C)C)C(=O)N(C)[C@@H](CCCNC(N)=NCC=C(C)C)C(=O)N[C@H](C)[C@H](OS(=O)(=O)O)c1ccc(OS(=O)(=O)O)c(COS(=O)(=O)O)c1 | not fulfilled
C=C1C(=O)O[C@H]2[C@H]1CC/C(COC(=O)c1cccc3ccccc13)=C\CC[C@@]1(C)O[C@@H]21 | fulfilled
CCc1c2cc(Cl)ccc2n2cc(Cc3ccccc3)[nH]c(=O)c12 | not fulfilled
O=C(NCCNc1nccc(-c2c(-c3cccc(O)c3)nc3sccn23)n1)Nc1cccc(C(F)(F)F)c1 | not fulfilled
COc1ccc(NC(=O)Nc2ccc(-c3ccc(OC)c(OC)c3)nc2C)cc1 | not fulfilled
COc1ccc(C[C@H](N)C(=O)N[C@@H]2[C@@H](CO)OC(n3cnc4c(N(C)C)ncnc43)[C@@H]2O)cc1 (stereo partly drawn) | fulfilled
CC1CCC(C(C)C)C(NN)C1 (stereo not drawn) | not fulfilled
CCN(CC)c1ccc(C2CC(c3cc(OC)c(OC)c(OC)c3)=NN2)cc1 (stereo not drawn) | fulfilled
COc1ccc2c(-c3ccc(F)cc3)c(C#N)c(=NC(C)=O)oc2c1 | not fulfilled
O=[N+]([O-])c1cccc2cc(S(=O)(=O)O)ccc12 | not fulfilled
Cc1cc(SCc2ccc(Cl)cc2Cl)nc(SCc2ccc(Cl)cc2Cl)n1 | not fulfilled
Cc1cc(NC(=O)c2cccc(C(F)(F)F)c2)ccc1-n1ccc2c(NC(=O)c3ccccc3)nccc21 | not fulfilled
CCOc1ccc(Cc2nccc3cc(OCC)c(OCC)cc23)cc1OCC | fulfilled
COc1cc([C@@H]2c3cc4c(cc3C(OC3O[C@@H]5COC(C)O[C@H]5[C@H](O)[C@H]3O)C3COC(=O)[C@@H]32)OCO4)cc(OC)c1O (stereo partly drawn) | not fulfilled
Fc1cccc(F)c1C#Cc1ccc2cccnc2c1 | not fulfilled
